Listed next: entries and their corresponding melting point.

Study these solved cases before continuing.
# compound, test_result
measured = [
    ("CCC(CC)Nc1c(NCc2ccc(OC)c(OC)c2)c(=O)c1=O", "223 to 224 °C"),
    ("Cc1ccoc1C(=O)Nc1c(C)cc(N2CCCOCC2)nc1N1CC[C@@H](F)C1", "93 to 96 °C"),
    ("COC(=O)C1=C2CCC(c3ccccc3)CN2CCC1=O (stereo not given)", "150 to 151 °C"),
]

Query :: Would you kindly share the measured melting point for `COc1cc(CNC(=O)c2oc(=O)c3ncccc3c2-c2ccc(C)cc2)cc(OC)c1OC` ?
Result :: 195 to 196 °C

Query :: Would you kindly share the measured melting point for `Nc1ccccc1Sc1ccncc1` ?
Result :: 103 to 107 °C

----------
Listed next: entries and their corresponding melting point.

Study these solved cases before continuing.
# compound, test_result
measured = [
    ("CSc1ccc(-c2csc3ccc(C(=O)NN)cc23)cc1", "195 to 196 °C"),
    ("O=C(O)c1c(Cl)ccc([N+](=O)[O-])c1Cl", "133 to 135 °C"),
    ("CCCc1nn(-c2ccc(C(F)(F)F)cn2)cc1CCCOc1nn(-c2ccccc2)cc1CC(=O)O", "123 to 124 °C"),
    ("Cc1[nH]c(Cl)c(C#N)c1SC(F)(Cl)Cl", "187 °C"),
    ("Cc1ccc2nc(OCC(=O)NCCCN(C)Cc3ccc(Cl)c(Cl)c3)oc2c1", "62 to 66 °C"),
    ("COC(=S)C(C)Cc1ccc(OCc2nc3ccc(SC)cc3n2C)cc1 (stereo not given)", "97 to 100 °C"),
    ("Cc1nc2ccc3c(c2o1)OC(CO)CO3 (stereo not given)", "120 °C"),
    ("COc1ccc(-c2nn(CC(C)=O)c(=O)cc2-c2ccncc2)cc1", "68.3 to 70.6 °C"),
]

Query :: Would you kindly share the measured melting point for `NC(=O)COCCN1CCN(C(c2ccccc2)c2ccccc2)CC1` ?
Result :: 119 to 120 °C

Query :: Would you kindly share the measured melting point for `CCNC(=O)NCCc1cccc(-c2nc(=O)c3ccccc3s2)n1` ?
Result :: 240 to 242 °C

----------
Listed next: entries and their corresponding melting point.

Study these solved cases before continuing.
# compound, test_result
rows = [
    ("C[C@@H](O)Cn1ccc2cc(F)c(F)cc21", "114 to 116 °C"),
    ("CCN(CC)CCCCNc1ncc2cc(-c3c(Cl)cccc3Cl)c(NC(=O)Nc3ccccc3)nc2n1", "81 to 87.5 °C"),
    ("Cn1nnnc1-c1cn(C)c2ccccc2c1=O", "220 to 222 °C"),
]

Query :: Would you kindly share the measured melting point for `Nc1ccc2ccc(N)nc2n1` ?
Result :: 222 to 223 °C

Query :: Would you kindly share the measured melting point for `COc1ccc(C(C)=O)cc1C(C)=CC(=O)O` ?
Result :: 194 °C

Query :: Would you kindly share the measured melting point for `COC(=O)c1ccc(Cn2nc(O)c3[nH]c4cc(Cl)ccc4c(=O)c3c2=O)cc1` ?
Result :: > 290 °C

Query :: Would you kindly share the measured melting point for `C=CCO/N=C(\C(=O)OC)c1csc(NC(c2ccccc2)(c2ccccc2)c2ccccc2)n1` ?
Result :: 115 to 116 °C

Query :: Would you kindly share the measured melting point for CCOC(=O)C(C(=O)C(C)C)C1c2nccnc2C(=O)N1c1ccc2ccc(Cl)nc2n1 (stereo unspecified) ?
Result :: 214 °C

Query :: Would you kindly share the measured melting point for `O=[N+]([O-])c1ccccc1OCCN1CCN(c2cc(Cl)nnc2Cl)CC1` ?
Result :: 125 to 126 °C

Query :: Would you kindly share the measured melting point for CC12CCC(=O)NC1=CCc1ccccc12 (stereo unspecified) ?
Result :: 123 to 124 °C

Query :: Would you kindly share the measured melting point for `Clc1ccc(Cn2ccc3cc(OCc4nnn[nH]4)ccc32)cc1` ?
Result :: 162 to 163 °C

Query :: Would you kindly share the measured melting point for `COC(=O)CC[C@@H](CF)NC(=O)OCc1ccccc1` ?
Result :: 46 to 48 °C

Query :: Would you kindly share the measured melting point for `N#CC(=C=Nc1nc2ccccc2[nH]1)C#N` ?
Result :: 340 to 345 °C

Query :: Would you kindly share the measured melting point for `COc1nc2ccccc2cc1C=O` ?
Result :: 92 to 93 °C

Query :: Would you kindly share the measured melting point for `ClCc1ncc(-c2ccccc2)cc1Cl` ?
Result :: 74 to 75 °C

Query :: Would you kindly share the measured melting point for `CNC(=O)C(=Cc1cccc(-c2ccc(C)c(C)c2)c1)NC(C)=O` ?
Result :: 224 °C

Query :: Would you kindly share the measured melting point for `O=C1Cc2cccc(OCc3ccccc3)c2N1` ?
Result :: 140 to 142 °C

Query :: Would you kindly share the measured melting point for `COc1ccc(CNC(=O)c2[nH]c(C)c(-c3nc4ccc(C(=O)c5ccccc5)cc4[nH]3)c2C)cc1OC` ?
Result :: 120 to 122 °C

----------
Listed next: entries and their corresponding melting point.

Study these solved cases before continuing.
# compound, melting point
data = [
    ("CCOP(=O)(OCC)C(c1ccccc1)c1ccccc1C(F)(F)F (stereo unspecified)", "127 to 130 °C"),
    ("COc1ccc2nc(OC)cc(CCNC(C)=O)c2c1", "119 to 121 °C"),
    ("COC(=O)c1cc(Oc2ccc(F)cc2F)ncc1N", "102 to 104 °C"),
]

Query :: Would you kindly share the measured melting point for `CC(C)(C)NS(=O)(=O)c1ccc2c(NS(=O)(=O)N3CCOCC3)cccc2c1O` ?
Result :: 105 to 110 °C

Query :: Would you kindly share the measured melting point for `CCOC(=O)c1oc2cc(Br)ccc2c1C` ?
Result :: 55 to 56 °C

Query :: Would you kindly share the measured melting point for `NC(=O)c1nc(-c2ccccn2)nc2c1[nH]c(=O)n2-c1ccccc1` ?
Result :: 347 to 349 °C

Query :: Would you kindly share the measured melting point for `COc1cc2cc3c(Nc4ccc(F)c(Cl)c4)c(C#N)cnc3cc2cc1OCCN1CCOCC1` ?
Result :: 237 to 242 °C

Query :: Would you kindly share the measured melting point for COC1=C(OC)C(=O)C(CCC(C)CCC(=O)O)=C(C)C1=O (stereo unspecified) ?
Result :: 58 to 61 °C

Query :: Would you kindly share the measured melting point for `COc1cc(O)c(C)c(C(=O)O)c1Br` ?
Result :: 79 to 80 °C

Query :: Would you kindly share the measured melting point for `CCc1cc(-c2cccnc2)nn1-c1ccc(NC(=O)c2cccnc2)cc1` ?
Result :: 188 to 190 °C

Query :: Would you kindly share the measured melting point for `O=C(O)CCCCCc1nn(Cc2ccccc2)c2c1CCC2` ?
Result :: 94 to 95 °C

Query :: Would you kindly share the measured melting point for `Cc1noc(-c2nnc3c4ccccc4c(OCc4ncn(C)n4)nn23)n1` ?
Result :: 283 to 285 °C

Query :: Would you kindly share the measured melting point for `Cn1c(C(=O)C(C)(C)C)cc2cc(OCc3ccccc3)ccc21` ?
Result :: 101 to 103 °C

Query :: Would you kindly share the measured melting point for Cc1nnc(C=Cc2ccccc2OCC2CO2)s1 (stereo unspecified) ?
Result :: 134 to 135 °C

Query :: Would you kindly share the measured melting point for CC1Cc2c(c3cccnc3n(-c3ccc(Cl)c(Cl)c3)c2=O)O1 (stereo unspecified) ?
Result :: 273 to 274 °C

Query :: Would you kindly share the measured melting point for `CCOC(=O)Cc1c(C(=O)O)c(CC)c(C(=O)c2ccc(Cl)cc2)n1C` ?
Result :: 184 to 186 °C

Query :: Would you kindly share the measured melting point for `CN(O)C(=O)NCCCCCOc1ccc(-c2ccccc2)cc1` ?
Result :: 153 to 154 °C

Query :: Would you kindly share the measured melting point for CC[C@@H]1O[C@](C#Cc2ccoc2)(C(F)(F)F)c2cc(Cl)ccc2NC1=O (relative stereo) ?
Result :: 169 to 170 °C

Query :: Would you kindly share the measured melting point for `O=C(c1ccc(Cc2c(Cl)cc([N+](=O)[O-])cc2Cl)cc1)c1cnc(Cl)c(Cl)c1` ?
Result :: 129 to 131 °C

Query :: Would you kindly share the measured melting point for `O=CC(=C(c1ccc(F)cc1)c1ccc(F)cc1)n1nnnc1-c1ccccc1` ?
Result :: 193 to 194 °C

Query :: Would you kindly share the measured melting point for `COc1ccc(-c2nc3cc(OC)cc(-c4ccco4)c3o2)cc1` ?
Result :: 120 to 121 °C

Query :: Would you kindly share the measured melting point for `CCOC(=O)c1ccccc1CCc1ccc2oc(-c3nc(C(C)(C)C)cs3)cc2c1` ?
Result :: 75 to 77 °C

Query :: Would you kindly share the measured melting point for CC1CCNC(=C2C(=O)CC(C)(C)CC2=O)N1 (stereo unspecified) ?
Result :: 164 to 165 °C

Query :: Would you kindly share the measured melting point for `Oc1ccc(-c2ncc3ncc(-c4cccc(O)c4)cc3n2)cc1` ?
Result :: 256 to 257 °C

Attribution: a melting point compilation (Tetko et al.; mined from patent text by program, amines drawn as free bases though some values may be those of a salt)
